System: NCI-H522 lung
TEST METHOD NOTES: NCI-60 one-dose screen, 48 h
TEST CONTEXT: 10 µM unless noted
The panel holds about 83,000 compounds, 20% with a hit somewhere; the sample as a whole holds those more often. The source made the active and inactive calls. The calls were made as follows: active = growth percent below 10; inactive = the rest.
Outcome field: choose from active, inactive

Q) Would you mind telling me which call this test gave C=C1C(=O)O[C@@H]2[C@H]3[C@H](COC(C)=O)[C@@H](OC(C)=O)C[C@H]3C(=C)[C@@H](O)C[C@@H]12 ?
A) inactive

Q) Dear colleague, could you share the recorded outcome for C=CCN1C=CC(=O)[C@H](O[Si](C)(C)C(C)(C)C)[C@@H]1/C=C/c1ccccc1 when you have a moment?
A) active
